- test-system: Tyrosine-protein kinase JAK1 (Homo sapiens)
- Sequence (P23458 whole entry): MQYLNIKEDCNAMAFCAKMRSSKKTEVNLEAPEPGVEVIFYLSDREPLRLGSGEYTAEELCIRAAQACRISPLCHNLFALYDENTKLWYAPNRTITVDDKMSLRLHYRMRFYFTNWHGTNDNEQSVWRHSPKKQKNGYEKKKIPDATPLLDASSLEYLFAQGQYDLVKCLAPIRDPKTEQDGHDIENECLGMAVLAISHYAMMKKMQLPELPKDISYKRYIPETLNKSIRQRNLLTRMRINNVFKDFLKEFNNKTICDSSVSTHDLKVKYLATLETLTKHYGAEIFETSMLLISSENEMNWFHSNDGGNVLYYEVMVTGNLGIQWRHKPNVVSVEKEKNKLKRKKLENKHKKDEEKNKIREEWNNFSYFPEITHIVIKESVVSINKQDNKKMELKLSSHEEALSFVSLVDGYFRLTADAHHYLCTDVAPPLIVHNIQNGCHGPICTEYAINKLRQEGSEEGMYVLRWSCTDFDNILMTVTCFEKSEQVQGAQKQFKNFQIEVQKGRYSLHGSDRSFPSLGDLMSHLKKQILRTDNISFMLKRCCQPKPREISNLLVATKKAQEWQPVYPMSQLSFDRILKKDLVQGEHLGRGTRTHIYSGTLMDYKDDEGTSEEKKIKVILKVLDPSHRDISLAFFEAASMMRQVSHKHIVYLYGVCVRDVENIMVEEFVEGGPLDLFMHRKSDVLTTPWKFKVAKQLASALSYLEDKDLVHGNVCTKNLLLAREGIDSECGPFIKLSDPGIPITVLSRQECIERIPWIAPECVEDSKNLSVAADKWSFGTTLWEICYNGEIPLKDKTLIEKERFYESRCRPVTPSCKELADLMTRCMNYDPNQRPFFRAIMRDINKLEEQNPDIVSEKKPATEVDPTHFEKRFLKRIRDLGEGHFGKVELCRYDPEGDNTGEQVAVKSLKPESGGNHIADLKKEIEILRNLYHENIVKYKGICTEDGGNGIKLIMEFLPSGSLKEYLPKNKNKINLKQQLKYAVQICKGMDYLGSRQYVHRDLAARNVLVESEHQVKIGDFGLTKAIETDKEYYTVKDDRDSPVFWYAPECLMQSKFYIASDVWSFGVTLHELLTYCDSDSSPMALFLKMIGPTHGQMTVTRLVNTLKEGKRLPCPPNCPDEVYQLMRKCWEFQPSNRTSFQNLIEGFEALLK
- procedure-summary: Inhibition of JAK1 (unknown origin) incubated for 40 mins in presence of ATP by Kinase-glo luminescent assay
pIC50: −log10 of the molar value.
measurement-type: pIC50

P. Cc1cnc(Nc2ccc(N3CCN(C)CC3)c(F)c2)nc1Nc1ccc(C(=O)Nc2ccccc2N)cc1
Q. Cc1cnc(Nc2ccc(/C=C/C(=O)NO)cc2)nc1Nc1ccc(Cl)c(NS(=O)(=O)C(C)(C)C)c1
Task item: I'm curious whether P or Q has the smaller pIC50 number. Which is it? To answer, give the label that identifies your chosen option.
Reply: Q

----------
- procedure-summary: in vitro
- protocol-conditions: human, GES1 cells
measurement-type: IC50 at 48 h (µM)

INSERT INTO measurements (smiles_code, display_unit, test_value) VALUES
  ('CCCN(N)C(=O)c1ccc(Nc2nc(Nc3ccc(N4CCN(C)CC4)c(F)c3)ncc2C)cc1', 'µM', 11.5);

A. Cc1cnc(Nc2ccc(N3CCN(C)CC3)c(F)c2)nc1Nc1ccc(C(=O)Nc2ccccc2N)cc1
B. Cc1cnc(Nc2ccc(OCCN3CCCC3)cc2)nc1Nc1cccc(S(=O)(=O)NC(C)(C)C)c1
C. Cc1cnc(Nc2ccc(/C=C/C(=O)NO)cc2)nc1Nc1ccc(Cl)c(NS(=O)(=O)C(C)(C)C)c1
Task item: Ascending by IC50 at 48 h, please. Output spec: labels arranged per the requested ranking.
Reply: B, A, C
